STUDY_TARGET: Ec65 (Escherichia coli, UniProt P0A6X3 1-65, del66-102)
ASSAY: EMSA; Hill n 1.6; EMSA: 34 mM Tris-HCl pH 7.5, 50 mM NaCl, 50 mM KCl, 50 mM NH4Cl, 11.4 mM EDTA, 12% glycerol, 30 C, 30 min, ~1 nM 32P-RNA, Kd in Hfq6; anisotropy: 10 mM Tris-HCl
CONDITION_NOTES: protein: recombinant; tags: untagged; chain copies: 6; label: 32P; stem-loops
pKd: −log10 of the molar value.
PARAMETER: pKd

ChvR (structured_RNA) RNA: GGCGGGGCCUACAUGUCGCGCAAGUCUCCGGAGGGCCAUUCCGAGGCGGGGCCCGCUCCAGCGUCCUCAUUGGAGCGGGCGUCU: 7.69
